Test system: OV90
Assay: Primary qHTS to identify gynecologic anti-cancer compounds using libraries of approved drugs and bioactive compounds (AID 1345084); also: % is scaled to controls: 0 for no effect and ±100 for the full control effect; nearly all actives have a fitted effect of over 55% in size
Conditions: Gynecologic cancer cell panel viability, ATPlite luminescence, 48 h; series mostly up to 57.5 µM
Records with an inconclusive call do not appear. Activity calls are given as the source filed them. Calls follow the shape of the dose curve; as a rule, active = well fitted cell-killing curve with a large enough effect; inconclusive = small, poorly fitted or top-dose-only effect, or effect the other way; inactive = flat fitted curve, though single readings scatter.
measurement label: activity change, negative = cytotoxicity

1) COc1ccc(C(=O)NCc2cc(C(C)C)no2)cc1OC1CCN(C)CC1	inactive
2) C[C@@H]1CC[C@]2(C(=O)O[C@@H]3O[C@H](CO[C@@H]4O[C@H](CO)[C@@H](O)[C@H](O)[C@H]4O)[C@@H](O)[C@H](O)[C@H]3O)CC[C@]3(C)C(=CCC4[C@@]5(C)CC[C@H](O)[C@](C)(C(=O)O)C5CC[C@]43C)[C@@H]2[C@]1(C)O (some centres undefined)	16.5% [at 11.6 µM] (inactive)
3) CC1=CC2=C(C)C(=O)[C@](C)(O)[C@H](O)C2=CO1	inactive
4) CC(=O)OC1C(O)/C(C)=C\C2C(OC(=O)c3ccccc3)C(C)CC2(OC(C)=O)C(OC(C)=O)C(C)/C=C/C(C)(C)C1OC(C)=O (centres undefined)	inactive

* * *

Molecular target: Calcium and integrin-binding protein 1 (Homo sapiens)
Assay: Primary qHTS for Identification of Calcium Integrin Binding Protein 1 (CIB1) Competitor (AID 1508620);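 also: GST tagged CIB1 binding a fluorescein labelled alphaIIb integrin peptide tracer; top concentration of the series differs between compounds; % is scaled to controls: 0 for no effect and ±100 for the full control effect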
Details: CIB1-GST / FITC-alphaIIb peptide fluorescence polarization; series mostly up to 57.7 µM
Results filed as inconclusive are left out. Calls of active or inactive are those of the source. Calls come from the whole dose curve; as a rule, active = well fitted inhibition curve with a large enough effect; inconclusive = small, poorly fitted or top-dose-only effect; inactive = flat fitted curve, though single readings scatter. Where a SMILES comes first, the peptide text is derived from it.
measurement label: activity change, negative = inhibition

1) O=C(OC1C=C(CO)C2C(OC3OC(CO)C(O)C(O)C3O)OC=CC12O)c1ccc(O)cc1 (stereo not drawn)	inactive
2) C=CC(C)(O)CCC1C(C)(O)CCC2C(C)(C)CCCC21C (stereo not drawn)	inactive
3) Cn1cc(CCn2cnc(-c3cnn(C)c3)c2-c2ccc(C#N)cc2)cn1	inactive
4) Fc1cccc(CN(C2=NCCN2)c2c(Cl)cccc2Cl)c1	inactive
5) CCC[C@H](N[C@@H](C)C(=O)N1[C@H](C(=O)O)C[C@@H]2CCCC[C@@H]21)C(=O)O	inactive
6) C/C=C1/CC2C(=O)Nc3cc(O)c(OC)cc3C(=O)N2C1 (stereo not drawn)	inactive
7) C=C1CCC2[C@](C)(CCC[C@]2(C)C(=O)O)[C@H]1CC/C(C)=C/C(=O)OC (stereo partly drawn)	inactive
8) COc1c2cc(c(O[C@@H]3O[C@H](CO)[C@@H](O)[C@H](O)[C@H]3O)c1OC)CCCCC(O)CCc1ccc(O)c-2c1 (stereo partly drawn)	inactive
9) CC1=C2CC(C)(C)CC2C(O)C2=C(C1)C(=O)OC2O (stereo not drawn)	inactive
10) CCC(=O)N1CCc2cc(OC)c(O)cc2C1	inactive
11) CNC(C)C(=O)NC(C(=O)N1CCCC1C(=O)Nc1cccc2ncccc12)C(C)C (stereo not drawn)	inactive
12) CC(=O)c1c(C)cccc1O[C@@H]1O[C@H](CO)[C@@H](O)[C@H](O)[C@H]1O	inactive
13) CCOc1ncc(S(=O)(=O)N2CCN(CC)CC2)cc1-c1nc2c(CC)n(CCOC)nc2c(=O)[nH]1	inactive
14) C=C1C(O)CCC2(C)CC3(OC)OC(=O)C(C)=C3CC12 (stereo not drawn)	inactive
15) CC(CC12CCCN1C(=O)C1CCCN1C2=O)OC(N)=O (stereo not drawn)	inactive
16) CC1=COC(OC2OC(CO)C(O)C(O)C2O)C2C(CO)CC(OC(=O)/C=C/c3ccc(O)cc3)C12 (stereo not drawn)	inactive
17) C=C1CC23CC1CCC2C12OC(=O)C(C)(C(O)C(O)C1O)C2C3C(=O)O (stereo not drawn)	inactive
18) CC(/C=C/C=C(\C)C(=O)O[C@@H]1O[C@H](CO[C@@H]2O[C@H](CO)[C@@H](O)[C@H](O)[C@H]2O)[C@@H](O)[C@H](O)[C@H]1O)=C\C=C\C=C(C)\C=C\C=C(/C)C(=O)O[C@@H]1C[C@](O)(C(=O)O)C[C@@H](O)[C@H]1OC(=O)/C=C/c1ccc(O)c(O)c1	inactive
19) CCC(C)/C=C(C)/C=C/C1=CC2=CC(=O)C(C)(O)C(OC(C)=O)C2CO1 (stereo not drawn)	inactive
20) C/C=C/C=C/C=C/C(=O)OC1C=C2C(O)OC(=O)[C@]2(O)[C@@]2(C)CCCC(C)(C)[C@H]12 (stereo partly drawn)	inactive
21) CC(=O)NC(Cc1ccccc1)C(=O)NC(C(=O)O)C(C)C (stereo not drawn) (Ac-Phe-Val-OH; configuration not given here)	inactive
22) O=C(C[C@@H]1C(C(=O)O)=CO[C@@H](O[C@@H]2O[C@H](CO)[C@@H](O)[C@H](O)[C@H]2O)/C1=C\CO)OCCc1ccc(O)c(O)c1	inactive
23) CC12CC(O)C(O)C=C1c1cc(O)cc(O)c1C(=O)O2 (stereo not drawn)	inactive
24) COc1ccc(-n2[nH]c3c(cnc4ccccc43)c2=O)cc1	inactive
25) C[C@@H]1O[C@@H](O[C@H]2[C@H](OC(=O)[C@]34CCC(C)(C)C[C@H]3C3=CCC5[C@@]6(C)C[C@@H](O)[C@@H](O)[C@@](C)(CO)C6[C@H](O)C[C@@]5(C)[C@]3(C)CC4)OC[C@H](O)[C@@H]2O)[C@H](O)[C@H](O)[C@H]1O[C@@H]1OC[C@@H](O)[C@H](O[C@H]2O[C@H](C)[C@@H](O)[C@H](O)[C@@H]2O)[C@H]1O (stereo partly drawn)	inactive
26) O=[N+]([O-])c1cc(Cl)ccc1S(=O)(=O)N1CCN(Cc2ccccc2)CC1	inactive
27) COC(=O)C[C@@H]1C(C(=O)O)=CO[C@@H](O[C@@H]2O[C@H](CO)[C@@H](O)[C@H](O)[C@H]2O)/C1=C\COC(=O)/C=C/c1ccc(O)c(OC)c1	inactive
28) O=C(O[C@@H]1O[C@H](CO)[C@@H](O)[C@H](O)[C@H]1O)c1ccccc1	inactive
29) CC(=O)OC1C(O)/C(C)=C\C2C(OC(=O)c3ccccc3)C(C)CC2(OC(C)=O)C(OC(C)=O)C(C)/C=C/C(C)(C)C1OC(C)=O (stereo not drawn)	inactive
30) CC(C)N(CCCNC(=O)Nc1ccc(C(C)(C)C)cc1)C[C@H]1O[C@@H](n2ccc3c(N)ncnc32)[C@H](O)[C@@H]1O	inactive
31) CC1(C)CCCC2(C)c3c4c(c(=O)oc(=O)c3=CCC12)=CCC1C(C)(C)CCCC41C (stereo not drawn)	inactive
32) O=C(Nc1cc(-c2ccccc2)nn1-c1ccccc1)c1ccc([N+](=O)[O-])cc1	inactive
33) CC(C)(O)C1OC1C1=CC(=O)C2(C)OC2C1O (stereo not drawn)	inactive
